- Test system: Candida albicans
- testDescription: Antifungal activity against Candida albicans NCPF 3179 assessed as growth inhibition at 50 mg/mL after 3 days
- Assay type: functional
- measurementParameters: NCPF 3179, 72 h, read-out: IZ
readoutLabel: zone of inhibition at 50000 µg/mL (mm)
Could you give me the number in mm? Just the number is fine.

So the reported zone of inhibition at 50000 µg/mL for OC(c1ccc(-c2ccccc2F)cc1)c1cc2cc(-c3ccccc3F)ccc2o1 (centres undefined) , on Candida albicans, turned out to be 0

So the reported zone of inhibition at 50000 µg/mL for O=C(c1ccc(-c2cccc([N+](=O)[O-])c2)cc1)c1cc2cc(-c3cccc([N+](=O)[O-])c3)ccc2o1 , on Candida albicans, turned out to be 0

So the reported zone of inhibition at 50000 µg/mL for O=C(c1ccc(Br)cc1)c1cc2cc(Br)ccc2o1 , on Candida albicans, turned out to be 15

So the reported zone of inhibition at 50000 µg/mL for C=Cc1ccc(-c2ccc(C(=O)c3cc4cc(-c5ccc(C=C)cc5)ccc4o3)cc2)cc1 , on Candida albicans, turned out to be 6

So the reported zone of inhibition at 50000 µg/mL for O=[N+]([O-])c1cccc(-c2ccc(C(O)c3cc4cc(-c5cccc([N+](=O)[O-])c5)ccc4o3)cc2)c1 (centres undefined) , on Candida albicans, turned out to be 0

So the reported zone of inhibition at 50000 µg/mL for CC(=O)c1ccccc1-c1ccc(C(=O)c2cc3cc(-c4ccccc4C(C)=O)ccc3o2)cc1 , on Candida albicans, turned out to be 0

So the reported zone of inhibition at 50000 µg/mL for CS(=O)(=O)c1cccc(-c2ccc(C(=O)c3cc4cc(-c5cccc(S(C)(=O)=O)c5)ccc4o3)cc2)c1 , on Candida albicans, turned out to be 6

So the reported zone of inhibition at 50000 µg/mL for CC1(C)S[C@@H]2[C@H](NC(=O)[C@H](N)c3ccccc3)C(=O)N2[C@H]1C(=O)O [AMPICILLIN] , on Candida albicans, turned out to be 0

So the reported zone of inhibition at 50000 µg/mL for O=C(c1ccc(-c2ccccc2)cc1)c1cc2cc(-c3ccccc3)ccc2o1 , on Candida albicans, turned out to be 10
